target: stabilized BG505 SOSIP construct MD39 (HIV isolate BG505); assay: competition ELISA on MD39 vs VRC01
Catalogue of binders with associated competition value
Hey, just send me the number, nothing else.

| Binder | competition value |
| --- | --- |
| NC-Cow7 (antibody) VH: KVQLRESGPSLVKPFETLSLTCTGSGFSLSDKAAGWVRQAPGKAPEWLGSIDTGGNTGYNPGLKYRLSITKDNSKSQVSLSVSSMTSEDSATYYCTTVHQKAYKKVCPDDYSSNPDCVRLYGWSHCDCMRDSFGGWCRADGCSSTVEIGPYEWYVNAWGQGLLVTVSS VL: QAVLTQPSSVSGSLGQRVSITCSGSSSNVGNGYVSWYQLIPGSAPRSLIYGDTSRASGVPDRFSGSRSGNTATLTISSLQAEDEADYFCASPEDSSSNGVFGSGTTLTVL | 87 |
| NC-Cow5 (antibody) VH: QVQLQESGPSLVKPSQTLSLTCMVSGFSLNDKAVGWVRQAPGKALEWLGSIDAGGSTGYNPGLKSRLSISKDNSKNQVSLSVSSVTTEDSATYYCGTVHQRTQPKQTCPNGYSDDSALRYYSRCSDRDCWRCTGTTYYDTCQCSSYTYIHTYELYVDAWGQGLLVTVSS VL: QDVLTQPSSVSGSLGQRVSITCSGSSSNVGNGYVSWYQLIPGSAPRTLIYGDTSRASGVPDRFSGSRSGNTATLTISSLQAEDEADYFCASPEDSSSNAVFGSGTTLTVL | 95 |
| NC-Cow4 (antibody) VH: KVQLRESGPSLVKPSQTLSLTCMVSGFSLNDEAVGWVRQAPGKALEWLGSIDAGGSTGYNPGLKSRLSISKDNSKNQVSLSVSSVTTEDSATYYCGTVHQRTQPKQTCPNGYSDDSALRYYSRCSDRDCWRCTGTTYYDTCQCSSYTYIHTYELYVDAWGQGLLVTVSS VL: QAVLTQPSSVSGSLGQRVSITCSGSSSNVGNGYVSWYQLIPGSAPRTLIYGDTSRASGVPDRFSGSRSGNTATLTISSLQAEDEADYFCASPEDSSSNAVFGSGTTLTVL | 94 |

Form field: reported competition value of NC-Cow2 (antibody) VH: KVQLRESGPSLVKPSQTLSLTCMVSGSSLSDKAVGWVRQAPGKALEWLGIISAGGNRGYNSGLRSRLTISKDNSKNEVSLRVRSVTTEDSATYFCGTVHQKTQRKPICPDGYSDDSTLRYYSRCSDRDCWRCTGTTYYDTCQCGTYTWIDTHELHVDAWGQGLLVTVSS VL: QAVLNQPSSVSGSLGQRVSITCSGSSSNVGNGYVSWYQLIPGSAPRTLIYGDTSRASGVPDRFSGSRSGNTATLTISSLQAEDEADYFCASAEDSSSNAVFGSGTTLTVL
93
